Biological target: T1, mouse serum albumin (mouse, UniProt P07724 25-608)
T1 construct: also called MSA; MuSA
T1 sequence (P07724 25-608 limits assumed): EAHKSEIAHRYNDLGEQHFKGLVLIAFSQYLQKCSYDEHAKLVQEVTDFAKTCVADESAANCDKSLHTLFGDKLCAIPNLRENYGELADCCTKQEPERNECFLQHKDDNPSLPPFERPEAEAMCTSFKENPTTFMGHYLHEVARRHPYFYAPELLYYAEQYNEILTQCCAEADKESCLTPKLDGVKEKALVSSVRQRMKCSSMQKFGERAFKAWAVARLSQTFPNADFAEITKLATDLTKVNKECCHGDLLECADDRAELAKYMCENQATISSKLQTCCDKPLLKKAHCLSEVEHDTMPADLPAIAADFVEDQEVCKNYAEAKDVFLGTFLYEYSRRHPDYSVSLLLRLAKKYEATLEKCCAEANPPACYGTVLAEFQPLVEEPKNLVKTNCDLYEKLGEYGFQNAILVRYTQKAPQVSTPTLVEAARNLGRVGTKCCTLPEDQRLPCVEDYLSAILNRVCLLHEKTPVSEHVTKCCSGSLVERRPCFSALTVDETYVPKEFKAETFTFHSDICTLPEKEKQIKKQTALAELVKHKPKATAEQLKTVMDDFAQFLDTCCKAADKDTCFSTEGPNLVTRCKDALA
Assay: SPR, albumin immobilized;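 also: biacore SPR with human, rhesus or mouse serum albumin amine-coupled to the chip (about 1200 RU), 3 min association, 6-10 min dissociation, reference-subtracted traces fitted with a 1:1 model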
measure: kon (M⁻¹ s⁻¹)

[[record]]
binder = "PCSK9-PKE2 tandem 4472_F08 (designed binder, The real molecule is ONE polypeptide: PCSK9 domain, undisclosed linker F, PKE2 domain. It is given here as two chains because the linker letters are unknown., not shown: The inter-domain linker) PCSK9 domain: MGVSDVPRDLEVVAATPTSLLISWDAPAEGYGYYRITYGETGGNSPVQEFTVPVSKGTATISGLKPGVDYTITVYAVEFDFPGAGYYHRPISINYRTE PKE2 domain: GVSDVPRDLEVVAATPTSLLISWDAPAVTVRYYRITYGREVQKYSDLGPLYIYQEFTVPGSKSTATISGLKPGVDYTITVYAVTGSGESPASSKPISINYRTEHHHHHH"
endpointvalue = 13500

[[record]]
binder = "PKE2 Adnectin 2629_E06 (designed binder, 10Fn3 domain with modified CD loop; the entry includes the His6 tail; also called ADX_2629_E06) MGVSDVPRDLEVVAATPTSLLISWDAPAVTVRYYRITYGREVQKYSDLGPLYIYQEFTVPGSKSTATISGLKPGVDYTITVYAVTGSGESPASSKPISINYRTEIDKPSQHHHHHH"
endpointvalue = 68400

[[record]]
binder = "PCSK9-PKE2 tandem Adnectin w/ his tag 4472_C06 (designed binder, also called ATI-1574; ADX_4472_C06) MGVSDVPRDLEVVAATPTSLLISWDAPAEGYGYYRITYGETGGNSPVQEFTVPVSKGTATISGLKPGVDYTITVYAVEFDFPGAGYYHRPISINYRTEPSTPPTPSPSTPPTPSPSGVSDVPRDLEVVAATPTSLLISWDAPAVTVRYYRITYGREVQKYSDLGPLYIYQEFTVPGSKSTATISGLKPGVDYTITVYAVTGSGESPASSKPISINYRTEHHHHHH"
endpointvalue = 11500

